The origin of these recorded values is ChEMBL document CHEMBL1153881.

Molecular target: 5-hydroxytryptamine receptor 1A (Rattus norvegicus)
Sequence (P19327 whole entry): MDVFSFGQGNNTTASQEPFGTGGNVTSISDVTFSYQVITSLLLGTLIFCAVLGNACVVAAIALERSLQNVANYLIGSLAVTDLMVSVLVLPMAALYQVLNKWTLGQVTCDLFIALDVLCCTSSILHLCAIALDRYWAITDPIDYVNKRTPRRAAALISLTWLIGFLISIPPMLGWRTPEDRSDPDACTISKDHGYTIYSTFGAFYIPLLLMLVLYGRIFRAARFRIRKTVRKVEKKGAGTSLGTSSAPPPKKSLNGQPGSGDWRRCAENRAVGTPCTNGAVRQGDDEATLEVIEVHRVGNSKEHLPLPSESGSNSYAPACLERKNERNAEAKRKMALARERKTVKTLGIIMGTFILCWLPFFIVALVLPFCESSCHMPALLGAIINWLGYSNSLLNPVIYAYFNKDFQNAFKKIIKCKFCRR
measurement_name: pKi
In simple prose, pKi is minus the logarithm base ten of a concentration in moles per litre.

Solved entries:
In [3]: df
Out[3]:
                                   molecule  endpoint_result
0  COc1ccccc1N1CCN(CCCN2C(=O)C[C@H](NC(=O)CC3CC4CCC3C4)C2=O)CC1 (stereo partly specified)             7.40
1  O=C(N[C@H]1CC(=O)N(CCCN2CCN(c3cccc(Cl)c3)CC2)C1=O)C1CCCCC1             6.44
2  COc1ccccc1N1CCN(CCN2C(=O)C[C@H](NC(=O)C34CC5CC(CC(C5)C3)C4)C2=O)CC1             6.24
3       COc1ccccc1N1CCN(CCN2C(=O)CCC2=O)CC1             5.68
4  COc1ccccc1N1CCN(CCN2C(=O)C[C@H](NC(=O)C3CCCCC3)C2=O)CC1             5.13

// pKi lookup, molecule = O=C(NCCN1CCN(c2cccc(Cl)c2)CC1)[C@@H]1CCCN1C(=O)C1CCCC1 , result: 5.70

// pKi lookup, molecule = COc1ccccc1N1CCN(CCCCNC(=O)[C@@H]2CCCN2C(=O)C23CC4CC(CC(C4)C2)C3)CC1 , result: 8.52

// pKi lookup, molecule = O=C(N[C@H]1CC(=O)N(CCN2CCN(c3cccc(Cl)c3)CC2)C1=O)C1CCCCC1 , result: 5.42

// pKi lookup, molecule = O=C(NCCCCN1CCN(c2cccc(Cl)c2)CC1)[C@@H]1CCCN1C(=O)c1ccccc1 , result: 7.11

// pKi lookup, molecule = COc1ccccc1N1CCN(CCCN2C(=O)C[C@H](NC(C)=O)C2=O)CC1 , result: 6.32

// pKi lookup, molecule = COc1ccccc1N1CCN(CCCCNC(=O)[C@@H]2CCCN2C(=O)C2CCCCC2)CC1 , result: 7.72
